Here the recorded viability, T/C is given for each entry.
- Test system: 743489-274-T-PDC complex spheroid viability;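 note: spheroids exposed to compounds for 7 days before readout; 100% = DMSO vehicle control wells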
- assay_info: Anticancer human tumor 743489-274-T-PDC patient-derived renal cell carcinoma cell line growth inhibition
- test_conditions: second compound 1 µM; first compound 3 µM; stronger effect = lower value
property_name: viability, T/C (%)

1. O=C(C=Cc1cccc(S(=O)(=O)Nc2ccccc2)c1)NO + NC1CCC(NC2CC2c2ccccc2)CC1    41.2
2. COc1cc(C2c3cc4c(cc3C(OC3OC5COC(C)OC5C(O)C3O)C3COC(=O)C23)OCO4)cc(OC)c1O (stereo not drawn) + NC1CCC(NC2CC2c2ccccc2)CC1    97.9
3. CCN(c1cc(-c2ccc(CN3CCOCC3)cc2)cc(C(=O)NCc2c(C)cc(C)[nH]c2=O)c1C)C1CCOCC1 + NC1CC1c1ccc(-c2cccc(O)c2)cc1    104
